Test system: ACHN renal
assay comment: NCI tumour cell line growth inhibition, 48 h

molecule | measurement target | TGI
Cc1nc(N/N=C/c2ccccc2Cl)[nH]c(=O)c1CCO | ACHN renal | > 100 µM
CCCCCCCCCCCCCC1=NCCN1CCO | ACHN renal | 4.68 µM
O=C(Nc1ccccc1)N(C1=NCC(CI)S1)c1ccc(F)cc1F (stereo not drawn) | ACHN renal | > 100 µM

* * *

Tested on: SF-539 CNS
assay comment: NCI tumour cell line growth inhibition, 48 h
Quick reference for GI50 among some molecules

molecule | GI50
COC1CCN(C(=O)c2cc(Cc3n[nH]c(=O)c4ccccc34)ccc2F)CC1 | > 100 µM
Cc1cc(O)ccc1C1=NN(c2ccc(S(C)(=O)=O)cc2)C(=O)CC1 | 13.2 µM
COc1cc(-c2nc3ccccc3s2)ccc1NC(=O)COc1ccc(Cl)cc1 | 61.6 µM
CCOC(=O)c1c(C)n2c(=O)cc(C)c3c(O)c(O)cc1c32 | 16.6 µM
CCN1C(=O)N(CC)C2Nn3c(s/c(=C\c4ccccc4Br)c3=O)=NC21 (stereo unspecified) | 0.889 µM
O=C1c2nsnc2C(=O)c2c(F)c(F)c(F)c(F)c21 | 1.7 µM
